Each entry below carries its recorded apparent KD of MS2 coat protein.
Tested on: MS2 coat protein
Assay Method Text: apparent KD of MS2 coat protein; designed switch direction (-1 OFF switch, 1 ON switch): -1; higher = weaker reporter binding
Condition Description: input ligand: none
A number alone suffices; assume nM.

Solved cases (3 shown):
GGUUUGGGAGGAUAUGGUUUUAAUAACAUGAGGAUCACCCAUGUAAAUAGAUCCUCAAGGCCAGAAGGCUCGGGCC [-24.9, -24.02 kcal, A 29%] (Eterna round: R97, puzzle: Exclusion 5): 143
CGUGUGUGAGGAUAUGACAAUGGUAUCUUCGGAUACCAUUGUCAGAAGGUACAUGAGGAUCACCCAUGUAGAUC [Exclusion 4 - Mod Brourd Ex 4-3: 20 v.2] (Eterna round: R96, puzzle: Exclusion 4): 59.8
ACUCUACAUGAGGAUCACCCAUGUGAGGAUAUCAAAGCCAGAGCGGAUCUCUGGUCCAUGAGAAGGUGCAUGGU [ElNandoxlusion 3 - Jieux - Exclusion 1] (Eterna round: R97, puzzle: Exclusion 1): 22.3

Turning to the following sequence.
Enter reported apparent KD of MS2 coat protein observed with MS2 coat protein for UUUAUGUAAGGAUAUAUGAGUCACGGAAAUAAACCGUGAAGAUAGAAGGUACAUGAGGAUCACCCAUGUAAGGC [Mod of Anonveat 8 - Jieux - Exclusion 4] (Eterna round: R97, puzzle: Exclusion 4)
22.9

---

System: MS2 coat protein
Assay Method Text: apparent KD of MS2 coat protein; designed switch direction (-1 OFF switch, 1 ON switch): 1; higher = weaker reporter binding
Condition Description: Eterna round: R95; input ligand: none
Readout Label: apparent KD of MS2 coat protein (nM)
A number alone suffices; assume nM.

Solved cases (7 shown):
GUUAAACAUGAGGAUCACCCAUGUAAUAAUAUGGGAGGAUAUCAGAAAGUAUGUAUGAAAUGAGAAGGCCUAAUUG [Mat - Same State 1 - Mod of Eli - D78] (puzzle: Same State 1): 124
GGUCCGGCCUGAGCUGGACCGAGGCAUGUACAUGAGGAUCACCCAUGUUCAUGUGCAGGCUUUUUGCUCGUCUUGUG [JL-shm-2.06 JL mod] (puzzle: Sensor for hsa-mir-208a): 50.6
AGAAAGAAACAUGAGGAUCACCCAUGUACAAGCUUUUUGCUCGUCUUAUUACAUGGGUUCAUGGGUGAUCGGGAUGU [Tim MacKenzie] (puzzle: Sensor for hsa-mir-208a version 2): 19.9
GUGCGGCUGCCACAGGAUAUACGUGGAUCGACAUGAGGAUCACCCAUGUAUAUCCUAAUAAUUGCGUAGAAGGGUGGUCAGCCGG [Anzaenenes] (puzzle: Same State 2): 825
AUAAAACAUGAGGAUCACCCAUGUAAUCGCCAGACAGGAUAUAUAGUGGCAUUUGCAGGGAUAGAAGGGUCGUGGC [Lerainxege] (puzzle: Same State 1): 37
AGUCCAGCCUGAGCUGGACAAAAGCAUGUACAUGAGGAUCACCCAUGUUCAUGUACAAGCUUUUUGCUCGUCUUGAA [salish99_208a_r3_095x] (puzzle: Sensor for hsa-mir-208a): 817
AUUUAACAAGCUUUUUGCUCGUCUUAUAAACAUGAGGAUCACCCAUGUAAUAGCGUGAGAGUAAUUAAUUAAAUAAU [JMF 90] (puzzle: Sensor for hsa-mir-208a): 13.3

Requested read-out: apparent KD of MS2 coat protein. Entry: AUUUAACAAGCUUUUUGCUCGUCUUAUAAACAUGAGGAUCACCCAUGUAAUAGCGUGAGAGUAAUUUAUUAAAUAAU [JMF 92] (puzzle: Sensor for hsa-mir-208a)
15.6

Taken from the supplement of paper PMC9170038.
